Target: HCV NS5B polymerase (His-tagged, C-terminal 21 amino acid deleted NS5B, HC-J4) (Hepatitis C virus genotype 1b, UniProt O92972)
Construct: The cDNA encoding NS5B amino acid 1-570 (HC-J4, genotype 1b); His tag (His6, from pET-21b) (C); made in house; host or cells: E. coli BL21 (DE3)
Sequence (O92972 2417-3000, looked up, stated change not applied): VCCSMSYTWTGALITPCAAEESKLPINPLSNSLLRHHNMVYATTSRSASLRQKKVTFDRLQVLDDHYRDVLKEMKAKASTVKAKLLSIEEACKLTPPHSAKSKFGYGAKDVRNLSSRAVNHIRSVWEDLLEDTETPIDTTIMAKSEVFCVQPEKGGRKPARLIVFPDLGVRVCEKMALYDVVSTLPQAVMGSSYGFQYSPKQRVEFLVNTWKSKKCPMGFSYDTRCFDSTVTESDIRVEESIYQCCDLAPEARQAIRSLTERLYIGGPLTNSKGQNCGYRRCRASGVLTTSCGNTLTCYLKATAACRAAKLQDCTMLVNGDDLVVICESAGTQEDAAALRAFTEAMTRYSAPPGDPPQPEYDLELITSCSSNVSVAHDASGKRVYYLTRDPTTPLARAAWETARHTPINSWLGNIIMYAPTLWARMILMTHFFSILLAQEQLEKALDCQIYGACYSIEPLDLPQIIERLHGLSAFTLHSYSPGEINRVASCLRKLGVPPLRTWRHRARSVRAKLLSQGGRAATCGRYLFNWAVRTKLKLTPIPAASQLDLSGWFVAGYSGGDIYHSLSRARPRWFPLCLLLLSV
Assay: NS5b polymerase assay (biochemical RdRp assay, 3H-GTP incorporation, SPA beads)
Parameters: species or system HCV genotype 1b
Settings: NS5B Polymerase Assay IC50 (μM)
experimental-readout: IC50

In the examples that follow, each entry is paired with its recorded IC50.
Find the recorded IC50 belonging to CC1(C)CC(=O)C2=C(C1)Nc1ccccc1NC2c1cccc(OC(=O)c2ccc(Cl)cc2)c1 (stereo not shown) and report it.
82.9 µM

What do we get for O=C1CC(c2ccc(Cl)cc2)CC2=C1C(c1ccc(C(F)(F)F)cc1)Nc1ccccc1N2 (stereo not shown) ?
> 42.7 µM

What do we get for Cc1cc2c(cc1C)NC(c1ccc(Cl)cc1Cl)C1=C(CC(C)(C)CC1=O)N2 (stereo not shown) ?
> 133 µM

With those in mind, consider the next compound.
Find the recorded IC50 belonging to COc1ccc([C@@H]2CC(=O)C3=C(C2)Nc2ccccc2N[C@H]3c2ccc3c(c2)OCO3)cc1OC and report it.
> 42.7 µM

Data credit: patent US20090221559A1
